Test system: H1N1-induced apoptosis in MDCK cells
Format: cell-based
property: Apoptosis evaluation (%), Q4 healthy cells
Remember to follow the number with its unit.

Batch: Apoptosis evaluation (%), Q4 healthy cells for all items listed.
1. CCCCCCCCCCCCCCCC[N+](C)(C)CCCCCC[N+](C)(C)CCCCCCCCCCCCCCCC.[Br-].[Br-] [GSA]
2. CCCCCCCCCCCCCCCC[N+](C)(C)Cc1ccc(C[N+](C)(C)CCCCCCCCCCCCCCCC)cc1.[Br-].[Br-] [GSH]
3. CCCCCCCCCCCCCCCCCC[N+](C)(C)CCCCCCCCCCCC[N+](C)(C)CCCCCCCCCCCCCCCCCC.[Br-].[Br-] [GSJ]
4. CCCCCCCCCCCC[N+](C)(C)CCCCCCCCCC[N+](C)(C)CCCCCCCCCCCC.[Br-].[Br-] [GSC]
5. CCCCCCCCCCCCCCCC[N+](C)(C)CCCCCCCCCC[N+](C)(C)CCCCCCCCCCCCCCCC.[Br-].[Br-] [GSF]
6. CCCCCCCCCCCCCCCCCC[N+](C)(C)CCCCCCCCCC[N+](C)(C)CCCCCCCCCCCCCCCCCC.[Br-].[Br-] [GSI]
7. CCCCCCCCCCCCCCCC[N+](C)(C)CCCCCCCCCCCC[N+](C)(C)CCCCCCCCCCCCCCCC.[Br-].[Br-] [GSG]

Result:
1: 54.85%; 2: 68.05%; 3: 68.75%; 4: 37.50%; 5: 70.50%; 6: 77.90%; 7: 70.10%

----------
System: influenza A/PR/8/34 (H1N1) virus
Format: cell-based
Counter-ions that a name gives are not always drawn.
property: Log HA decrement (mean ± SD), Co-pen (logs)
Give bare numbers, in logs.

Field: example entries. Status: answers known.
| compound | targetSystem | unitAnnotation | Log HA decrement (mean ± SD), Co-pen |
| --- | --- | --- | --- |
| CCC(CC)O[C@@H]1C=C(C(=O)O)C[C@H](N)[C@H]1NC(C)=O [Ose, oseltamivir carboxylate, reference compound] | influenza A/PR/8/34 (H1N1) virus | logs | 8 |
| CCCCCCCCCCCCCCCC[N+](C)(C)CCCCCC[N+](C)(C)CCCCCCCCCCCCCCCC.[Br-].[Br-] | influenza A/PR/8/34 (H1N1) virus | logs | 6.5 |
| CCCCCCCCCCCC[N+](C)(C)CCCCCCCCCC[N+](C)(C)CCCCCCCCCCCC.[Br-].[Br-] | influenza A/PR/8/34 (H1N1) virus | logs | 6.5 |

Shift focus to the following entry.
Problem: Item under review: NC12CC3CC(CC(C3)C1)C2 [Ama, amantadine hydrochloride, reference compound] . Reported Log HA decrement (mean ± SD), Co-pen?
Result: 7

----------
System: MDCK cells
procedureSummary: Cytotoxicity assay
Format: cell-based
conditionParameters: 48 h, MTT
property: log10 of CC50 (log10 of the value in µg/mL)
Transform log10 | Measure CC50 | Unit µg/mL

Below, 2 molecules whose answers are already recorded.
| molecule | targetSystem | log10 of CC50 |
| --- | --- | --- |
| CCCCCCCCCCCCCCCC[N+](C)(C)CCCCCCCCCCCC[N+](C)(C)CCCCCCCCCCCCCCCC.[Br-].[Br-] | MDCK cells | 1.08 |
| CCCCCCCCCCCCCCCC[N+](C)(C)Cc1ccc(C[N+](C)(C)CCCCCCCCCCCCCCCC)cc1.[Br-].[Br-] | MDCK cells | 2.72 |

For each of the molecules below, state log10 of CC50.
1. CCCCCCCCCCCCCCCCCC[N+](C)(C)Cc1ccc(C[N+](C)(C)CCCCCCCCCCCCCCCCCC)cc1.[Br-].[Br-]
2. CCCCCCCCCCCCCCCC[N+](C)(C)CCCCCCCCCC[N+](C)(C)CCCCCCCCCCCCCCCC.[Br-].[Br-]

Result:
[3.09, 0.94]

List reported log10 of CC50 for each of these molecules:
1. CCC(CC)O[C@@H]1C=C(C(=O)O)C[C@H](N)[C@H]1NC(C)=O [Ose, oseltamivir carboxylate, reference compound]
2. CCCCCCCCCCCCCCCCCC[N+](C)(C)CCCCCCCCCCCC[N+](C)(C)CCCCCCCCCCCCCCCCCC.[Br-].[Br-]
3. CCCCCCCCCCCCCCCC[N+](C)(C)CCCCCC[N+](C)(C)CCCCCCCCCCCCCCCC.[Br-].[Br-]
4. CCCCCCCCCCCCCCCCCC[N+](C)(C)CCCCCCCCCC[N+](C)(C)CCCCCCCCCCCCCCCCCC.[Br-].[Br-]

Result:
1. 2.90
2. 1.69
3. 0.89
4. 1.21

Reference source for all entries: paper PMC10088587
